Catalogue of MIC strain 19 (E. coli J62-TEM-3 + 4 μg/mL clavulanic acid) values
- Tested on: Bacteria
- experimental.protocol: MIC determination in combination with β-lactamase inhibitors (constant 4 μg/mL)
- Type: cell-based
- condition.details: strain 19; E. coli J62-TEM-3 + 4 μg/mL clavulanic acid
Form entry: value (µg/mL) — number only.

structure_string=C[C@H]1[C@H](NC(=O)/C(=N\OCCOc2ccc(C(=N)NCCO)cc2)c2csc(N)n2)C(=O)N1S(=O)(=O)O unit_abbrev=µg/mL measured=0.25

So what's the measured MIC strain 19 (E. coli J62-TEM-3 + 4 μg/mL clavulanic acid) for this one? `CC(C)(N)CNC(=N)c1ccc(OC[C@H](O/N=C(\C(=O)N[C@@H]2C(=O)N(OS(=O)(=O)O)C2(C)C)c2csc(N)n2)C(=O)O)cc1`
0.125

FYI, the data here is from patent US9556165B2.
